# System name: human melanocortin receptor-4 (human, UniProt P32245 1-332)
# Sequence (P32245 whole entry): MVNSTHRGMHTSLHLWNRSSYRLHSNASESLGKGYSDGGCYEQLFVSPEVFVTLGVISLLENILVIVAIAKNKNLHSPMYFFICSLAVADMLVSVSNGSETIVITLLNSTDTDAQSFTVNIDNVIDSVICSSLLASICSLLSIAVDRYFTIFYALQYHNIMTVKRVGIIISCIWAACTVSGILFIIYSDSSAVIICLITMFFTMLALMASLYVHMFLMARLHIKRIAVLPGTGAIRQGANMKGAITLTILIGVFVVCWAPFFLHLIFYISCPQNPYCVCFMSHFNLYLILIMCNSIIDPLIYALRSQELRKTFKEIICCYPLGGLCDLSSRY
# Protocol notes: cell-based or functional assay
Positions of bridges follow the written chain, without caps; N, C: chain ends. Non-standard residues stand in square brackets, D forms with d. Aad = N[C@@H](CCCC(=O)O)C(=O)O; Dab = NCC[C@H](N)C(=O)O
Readout kind: intrinsic activity (cAMP, NDP-α-MSH is 100%)
Note: unit % is implicit; provide only the numeric part.

Reported intrinsic activity (cAMP, NDP-α-MSH is 100%) ( Ac-RDV[dF]RWK-NH2 (lactam 2-7) [Peptide No. 16] ) = 42

For record Ac-R[Aad]H[dF]RW[Dab]-NH2 (lactam 2-7) [Peptide No. 126] the listed intrinsic activity (cAMP, NDP-α-MSH is 100%) is 101

The reported intrinsic activity (cAMP, NDP-α-MSH is 100%) of the binder Ac-RDH[dF]RWK-NH2 (lactam 2-7) [Peptide No. 1] was 91

Note to self: intrinsic activity (cAMP, NDP-α-MSH is 100%) recorded for Ac-RDQ[dF]RWK-NH2 (lactam 2-7) [Peptide No. 32] was 98

According to the records, this binder Ac-R[Dab]H[dF]RW[Aad]-NH2 (lactam 2-7) [Peptide No. 128] displays intrinsic activity (cAMP, NDP-α-MSH is 100%) of 95
